Data origin: ChEMBL document CHEMBL1135540

Tested on: UT7
Experiment: Effective concentration for proliferation of UT7/TPO-R cell line.
Type: functional, cell-based
Conditions: Homo sapiens
Reported metric: EC50 (nM)
Answers are plain numbers, in nM.

Documented EC50 of Cc1ccc(-c2cccc(-c3nc4c(ccc5cc(S(=O)(=O)O)cc(O)c54)[nH]3)c2O)cc1C : 1000
